recombinant barcode read abundance (log10) values, listed per item
Assay: recombinant barcode read abundance after kanamycin selection (control-corrected) (log10(CPM+1)); higher = more efficient recombination; sequences stand for … in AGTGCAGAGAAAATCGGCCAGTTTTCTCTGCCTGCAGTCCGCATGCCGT…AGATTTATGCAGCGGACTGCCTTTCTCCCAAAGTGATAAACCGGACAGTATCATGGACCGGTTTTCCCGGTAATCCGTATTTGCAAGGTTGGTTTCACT; site = the 11-nt target
In your answer, state the number alone without any accompanying words.

Some entries whose results are on file:
- Biopolymer Sequence: "TAGGCGACTTGGGTTCTAACCTGTTGCTT (site TAGCCGACTAA)"
  Reported Result: 0.182
- Biopolymer Sequence: "GGACCTCCTTGGGTTCTAACCTGTTGCGT (site GGACCTCCTAA)"
  Reported Result: 0.503
- Biopolymer Sequence: "TATTTGTCTTGGGTTCTAACCTGTTGCCA (site CACTTGTCTTG)"
  Reported Result: 0.023

Problem: Endpoint output: recombinant barcode read abundance (log10) of AGGGTGTCTTGGGTTCTAACCTGTTGCTG (site AGGGTGCCTTA) . Value?
Result: 0.105

Problem: Name the reported recombinant barcode read abundance (log10) value associated with the sequence TGTAGAGCTTGGGTTCTAACCTGTTGCCG (site TGTGGAGCTCG)
Result: 0

Problem: Quick check: recombinant barcode read abundance (log10) of AGGGCACCTTGGGTTCTAACCTGTTGCAG (site CATCGGACTTC) ?
Result: 0.142

Problem: Request the reported recombinant barcode read abundance (log10) associated with GCAGGGTCTTGGGTTCTAACCTGTTGCTT (site GCCGGGTCTAA)
Result: 0.658

Problem: Which recombinant barcode read abundance (log10) is listed for CTAAAAGCTTGGGTTCTAACCTGTTGCAA (site CTAAAAGCTTT) ?
Result: 0.501

Problem: Endpoint output: recombinant barcode read abundance (log10) of TCGTTCCCTTGGGTTCTAACCTGTTGCTT (site TCGTTGCCTAG) . Value?
Result: 0.0502

Problem: Query: recombinant barcode read abundance (log10); subject: ACATGTCCTTGGGTTCTAACCTGTTGCCT (site ACATGTCCTAT)
Result: 0.00753

Problem: Which recombinant barcode read abundance (log10) is reported for this sequence? TAGGCGACTTGGGTTCTAACCTGTTGCTT (site TAGGCGACTAA)
Result: 0.395

====

Reported values of recombinant UMI read abundance (log10) for individual entries
Test: recombinant UMI read abundance after kanamycin selection (control-corrected) (log10(CPM+1)); higher = more efficient recombination; extreme values may be limits of the assay; sequences stand for … in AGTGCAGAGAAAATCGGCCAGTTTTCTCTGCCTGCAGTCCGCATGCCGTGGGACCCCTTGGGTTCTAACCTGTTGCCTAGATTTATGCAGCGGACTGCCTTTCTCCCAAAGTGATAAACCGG…AGGTTGGTTTCACT; site = the 11-nt donor
In your answer, state the number alone without any accompanying words.

Problem: # input sequence: AGATCTTCATGGACCGGTTTTCCCGGTAATCCGTATTTGCT (site CGATCATCTAG) ; wanted: its recombinant UMI read abundance (log10)
Result: 0

Problem: Form field: reported recombinant UMI read abundance (log10) of GGCAATCCATGGACCGGTTTTCCCGGTAATCCGTATTTGAC (site GGCAATCCTTT)
Result: 0

Problem: Quick one: recombinant UMI read abundance (log10) for CCCGATCCATGGACCGGTTTTCCCGGTAATCCGTATTTGCA (site CCCGTTCCTTG) ?
Result: 0

Problem: So what's the measured recombinant UMI read abundance (log10) for this one? CCATGGTCATGGACCGGTTTTCCCGGTAATCCGTATTTGTT (site CCATGGTCTAA)
Result: 1.06

Problem: Which recombinant UMI read abundance (log10) is listed for CAATGCGCATGGACCGGTTTTCCCGGTAATCCGTATTTGAA (site CAATGCACTTT) ?
Result: 1.15

Problem: Any idea what recombinant UMI read abundance (log10) was measured for GCGAAGCCATGGACCGGTTTTCCCGGTAATCCGTATTTGGG (site GCGAACCCTCC) ?
Result: 0

====

Assay: recombinant barcode read abundance after kanamycin selection (control-corrected) (log10(CPM+1)); higher = more efficient recombination; sequences stand for … in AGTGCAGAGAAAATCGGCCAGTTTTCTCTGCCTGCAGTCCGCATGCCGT…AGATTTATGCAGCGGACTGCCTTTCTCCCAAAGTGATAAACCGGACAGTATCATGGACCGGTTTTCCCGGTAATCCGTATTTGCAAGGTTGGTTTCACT; site = the 11-nt target
// reported recombinant barcode read abundance (log10) for each item listed

- Biopolymer Sequence: "TAACCTACTTGGGTTCTAACCTGTTGCAT (site TAACATACTAT)"
  Reported Result: 0.0358

Okay, now this sequence:
Problem: // lookup recombinant barcode read abundance (log10) for AAACGGCCTTGGGTTCTAACCTGTTGCCT (site AAACCGCCTAG)
Result: 0.147

====

Assay: recombinant UMI read abundance after kanamycin selection (control-corrected) (log10(CPM+1)); higher = more efficient recombination; extreme values may be limits of the assay; sequences stand for … in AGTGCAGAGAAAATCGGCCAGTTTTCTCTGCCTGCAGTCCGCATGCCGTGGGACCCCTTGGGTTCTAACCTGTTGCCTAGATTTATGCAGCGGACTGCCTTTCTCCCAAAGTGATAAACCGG…AGGTTGGTTTCACT; site = the 11-nt donor
Would you mind labelling by recombinant UMI read abundance (log10)? At or over 1 is t, under is f.

For orientation, consider the following solved cases.
- Biopolymer Sequence: "AGGACTTCATGGACCGGTTTTCCCGGTAATCCGTATTTGAC (site AGGACTACTGT)"
  Group: "f"
- Biopolymer Sequence: "TTAGCTGCATGGACCGGTTTTCCCGGTAATCCGTATTTGTG (site TCAGCTGCTCA)"
  Group: "f"
- Biopolymer Sequence: "AAAACTACATGGACCGGTTTTCCCGGTAATCCGTATTTGCG (site AAAACTACTCG)"
  Group: "t"
- Biopolymer Sequence: "GAGCTCACATGGACCGGTTTTCCCGGTAATCCGTATTTGAT (site GAGCTCACTAT)"
  Group: "t"
- Biopolymer Sequence: "AGCTCAACATGGACCGGTTTTCCCGGTAATCCGTATTTGGG (site AGCTCAGCTCC)"
  Group: "f"
- Biopolymer Sequence: "CAGCAATCATGGACCGGTTTTCCCGGTAATCCGTATTTGGT (site CAGCAATCTAC)"
  Group: "t"
- Biopolymer Sequence: "TGTGGTACATGGACCGGTTTTCCCGGTAATCCGTATTTGGC (site TGTGGTACTGC)"
  Group: "f"
- Biopolymer Sequence: "AGAATGCCATGGACCGGTTTTCCCGGTAATCCGTATTTGAC (site AGAATGCCTGT)"
  Group: "f"
- Biopolymer Sequence: "CGTGGACCATGGACCGGTTTTCCCGGTAATCCGTATTTGGG (site CGCGGACCTCC)"
  Group: "f"
- Biopolymer Sequence: "ACAGTATCATGGACCGGTTTTCCCGGTAATCCGTATTTGGA (site ACAGTATCTTC)"
  Group: "t"

Problem: Can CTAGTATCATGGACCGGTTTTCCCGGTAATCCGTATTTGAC (site CTAGGGTCTGT) be said to have recombinant UMI read abundance (log10) at or above 1?
Result: f

Problem: Check this sequence for recombinant UMI read abundance (log10) at or above 1: GCTTGTACATGGACCGGTTTTCCCGGTAATCCGTATTTGGT (site GCTTGTACTAC)
Result: t

Problem: Identify whether the reported recombinant UMI read abundance (log10) of the following sequence is 1 or greater: AATTATCCATGGACCGGTTTTCCCGGTAATCCGTATTTGCT (site CATTATCCTAG)
Result: f

Problem: Decide: recombinant UMI read abundance (log10) of TAATGGGCATGGACCGGTTTTCCCGGTAATCCGTATTTGGG (site TAATGGGCTCC) >= 1?
Result: f

====

Reported recombinant barcode read abundance (log10) values for a set of sequences
Assay: recombinant barcode read abundance after kanamycin selection (control-corrected) (log10(CPM+1)); higher = more efficient recombination; sequences stand for … in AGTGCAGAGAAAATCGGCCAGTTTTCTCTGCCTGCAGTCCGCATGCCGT…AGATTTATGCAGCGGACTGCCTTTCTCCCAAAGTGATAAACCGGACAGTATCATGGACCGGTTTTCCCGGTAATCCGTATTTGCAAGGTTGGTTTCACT; site = the 11-nt target
Could you respond with only the numeric value?

// worked examples, recombinant barcode read abundance (log10) included
- Biopolymer Sequence: "CAGTCCTCTTGGGTTCTAACCTGTTGCTG (site CCGTCCTCTCA)"
  Reported Result: 0.0321
- Biopolymer Sequence: "GACTAGTCTTGGGTTCTAACCTGTTGCAG (site GACTAGTCTCT)"
  Reported Result: 2.22
- Biopolymer Sequence: "CCACTAGCTTGGGTTCTAACCTGTTGCAG (site AATGGGTCTAA)"
  Reported Result: 0

Problem: Requested field: recombinant barcode read abundance (log10). Item: AGAACAACTTGGGTTCTAACCTGTTGCCT (site AGCACAACTAG)
Result: 0.035

Problem: # input sequence: GCCAAGGCTTGGGTTCTAACCTGTTGCCT (site GCCAAGGCTAG) ; wanted: its recombinant barcode read abundance (log10)
Result: 0.407
